System: heart muscle
Test: Heart muscle uptake and elimination of radiolabelled fatty acids after tail vein injection in mice
Format: in vivo, NMRI mice
Conditions: comparative tests, table 2; heart
endpoint_label: Elimination Half-time, rapid elimination (min)

> print(dat)
                                   compound  reported.measurement
1  O=C(O)CCCCCCCCCCCCCCCC[34Cl] [17-^34m Cl-Heptadecanoic acid]                   0.9
2                O=C(O)CCCCCCCCCCCCCCC[18F]                     3
3               O=C(O)CCCCCCCCCCCCCCCC[18F]                     6
4  CCCCCCCCCCCCCCCCC([18F])C(=O)O (stereo not shown)                   0.5
